experiment: MTT cytotoxicity assay; assay type: cell-based; settings: African green monkey, Vero E6 cells, read-out: cytotoxicity IC50 against Vero E6 cells
READOUT_LABEL: IC50 at 24 h

Query block: I would be grateful if you could share the reported IC50 at 24 h for O=c1c(O[C@@H]2O[C@H](CO)[C@@H](O)[C@H](O)[C@H]2O)c(-c2ccc(O)cc2)oc2cc(O)cc(O)c12 .
Result block: > 50 µg/mL

Query block: I would be grateful if you could share the reported IC50 at 24 h for COc1ccc(C[C@H]2COC(=O)[C@@H]2Cc2ccc(O[C@@H]3O[C@H](CO)[C@@H](O)[C@H](O)[C@H]3O)c(OC)c2)cc1OC .
Result block: > 50 µg/mL
